Test system: SD rats
test-details: animal or person
Type: in vivo
protocol-conditions: SD rats, single tail vein injection at 2×ED50; time from disappearance to recovery of righting reflex
readout-name: 2ED50 duration (min)
Provide only the numeric value, understood in min.

Prompt line: Lab note: need 2ED50 duration with SD rats for entry CCOC(=O)C(C)OC(=O)CC[C@@H]1N=C(c2ccccn2)c2cc(C)c(OC)cc2-n2c(C)cnc21 (stereo partly shown) , please look it up.
Response line: 2.43

Prompt line: Lab note: need 2ED50 duration with SD rats for entry C/C=C/C1CC(OCOC(=O)COC(=O)CC[C@@H]2N=C(c3ccccn3)c3cc(Br)c(Cl)cc3-n3c(C)cnc32)C(Br)CC1C(F)(F)F (stereo partly shown) , please look it up.
Response line: 2.18

Prompt line: Lab note: need 2ED50 duration with SD rats for entry CCOC(CCC(C)(C)OC(=O)CC[C@@H]1N=C(c2ccccn2)c2cc(Br)cc(Cl)c2-n2c(C)cnc21)C(=O)OC (stereo partly shown) , please look it up.
Response line: 3.25

Prompt line: Lab note: need 2ED50 duration with SD rats for entry CCOC(=O)COC(=O)CC[C@@H]1N=C(c2ccccn2)c2cccc(Cl)c2-n2c(C)cnc21 , please look it up.
Response line: 3.02

Prompt line: Lab note: need 2ED50 duration with SD rats for entry COC(=O)C(C)OC(=O)CC[C@@H]1N=C(c2ccccn2)c2c(cc(Cl)c(Cl)c2Cl)-n2c(C)cnc21 (stereo partly shown) , please look it up.
Response line: 3.59

Prompt line: Lab note: need 2ED50 duration with SD rats for entry Cc1cnc2n1-c1ccc(Br)cc1C(c1ccccn1)=N[C@H]2CCC(=O)OCOC(=O)OC(C)C(C)C (stereo partly shown) , please look it up.
Response line: 3.09

Prompt line: Lab note: need 2ED50 duration with SD rats for entry COC(=O)C1(OC(=O)CC[C@@H]2N=C(c3ccccn3)c3c(Cl)cc(C(F)(F)F)cc3-n3c(C)cnc32)CC1 , please look it up.
Response line: 4.03
